Tested on: HT29 colon
assay-name: NCI tumour cell line growth inhibition, 48 h
Exercise: state measured GI50 for each of the compounds provided.

Please review the following examples before continuing.
compound	GI50
O=C1Nc2ccccc2/C1=C/C(=N/c1nnc(-c2ccccc2)s1)c1ccccc1	2.1 µM
O=C1/C(=C/c2ccc(Cl)cc2)COc2ccc(O)cc21	2.67 µM
FC(F)(F)c1ccc(-c2cnc(Cl)nc2NC2CCCCCC2)cc1	71.1 µM
NCCOc1ncccc1/C=C1\c2ccccc2-c2ccc(F)cc21	1.19 µM
NS(=O)(=O)N(c1cc(C(F)(F)F)cc(C(F)(F)F)c1)C1CCN(Cc2ccc(F)cc2)CC1	2.68 µM

Report GI50 for each item below.
1. CCN1CCC(Oc2c(C#N)ncc3[nH]c4ncccc4c23)CC1
2. CC(C)(C)c1ccc(C(=O)Nc2sc3c(c2C#N)CCC(=O)C3)cc1
3. C=Cc1ccccc1 (tested in a mixture with another compound)
4. C=C1C(=O)O[C@H]2[C@H]1CC/C(COC(=O)CCCCCCC(=O)OC/C1=C/CC[C@@]3(C)O[C@H]3[C@H]3OC(=O)C(=C)[C@@H]3CC1)=C\CC[C@@]1(C)O[C@@H]21

Result ::
["10.2 µM", "0.505 µM", "> 75 µg/mL", "2.41 µM"]

====

System: SNB-75 CNS
assay-name: NCI tumour cell line growth inhibition, 48 h
Exercise: state measured TGI for each of the compounds provided.
Numbers only, in µM.

Please review the following examples before continuing.
smiles-notation	measurement-unit	TGI
O=C(CNc1cccc(Cl)c1)Nn1c(-c2ccccc2)nc2ccccc2c1=O	µM	13.8
CN(C)CCn1nc2c3c(c(C(=O)NCCCN(C)CCCNC(=O)c4ccc5c6c(nn5CCN(C)C)-c5ccccc5Nc46)ccc31)Nc1ccccc1-2	µM	0.272
COc1ccc(NC(=S)N/N=C/c2cccc(C)n2)cc1	µM	81.8

Report TGI for each item below.
1. CCN1CCC(Oc2c(C#N)ncc3[nH]c4ncccc4c23)CC1
2. O=C(/C=C/c1cccc(Br)c1)c1ccc(Cl)cc1
3. CCCCCCCCc1cc[n+](CC(=O)c2ccc(Br)cc2)cc1

Result ::
1: 29.8; 2: 28.1; 3: 2.54

====

System: U251 CNS
assay-name: NCI tumour cell line growth inhibition, 48 h
Binary call on TGI: yes from 50 µM upward, no beneath that.

compound	system-tested	group
COc1cc2oc3c(c(=O)c2c(O)c1/C=C/C(C)C)CCC(C)(C)Oc1cc(O)ccc1-3	U251 CNS	yes

Query :: hey, is TGI for this one >= 50 µM? O=C1Cc2c([nH]c3ccccc23)C2(CC3CCCCN13)OCCO2 (stereo unspecified)
Result :: yes

Query :: hey, is TGI for this one >= 50 µM? CC(C)OC(=O)C1=C2c3ncccc3C(=O)N2[C@@H](Cl)[C@@H](Cl)[C@@H]1Cl
Result :: yes

Query :: hey, is TGI for this one >= 50 µM? COCC(=O)Oc1cc(-c2ccc(C)cc2C)c(OC(=O)COC)c(-c2ccc(C)cc2C)c1
Result :: no

====

Exercise: state measured GI50 for each of the molecules provided.
Tested on: 786-0 renal
assay-name: NCI tumour cell line growth inhibition, 48 h

molecule	reported-value
Cc1cc2c([nH]1)CSc1cc(S(=O)(=O)c3ccccc3)c(=O)[nH]c1-2	14.9 µM

Report GI50 for each item below.
1. Cc1cc(-c2ncc(-c3cccnc3)cc2/C=C/c2ccccc2)cnc1-c1cccnc1
2. C[C@@]12C(=O)OC(=O)[C@]1(C)[C@H]1CC[C@@H]2O1
3. CS(=O)(=O)Nc1cc(-c2ccc3ncnc(Nc4ccc5c(cnn5Cc5cccc(F)c5)c4)c3c2)cnc1Cl

Result ::
["6.05 µM", "1.47 µM", "0.456 µM"]

Report GI50 for each item below.
1. C=C(C)C(=O)Oc1ccc(N=Nc2ccc(C)cc2)ccc1=O
2. Cc1cccc2c(C(=O)O[C@H](C(N)=O)[C@]3(C)CO3)cccc12
3. O=S1CCN(Cc2ccc(-c3ccc4ncnc(Nc5ccc(OCc6cccc(F)c6)c(Cl)c5)c4c3)o2)CC1
4. O=S1CCN(Cc2ccc(-c3ccc4ncnc(Nc5ccc(OCc6ccccc6)c(Cl)c5)c4c3)o2)CC1
5. Nc1cc2c([nH]c[n+]2CC#CCCl)c(SCC#CCCl)n1
6. CCCCCCCCc1ccc(OCCOCC[N+](C)(C)CC)cc1 (tested in a mixture with another compound)

Result ::
1. 4.96 µM
2. 1.4 µM
3. 6.54 µM
4. 10.7 µM
5. 1.27 µM
6. 14.2 µM

Report GI50 for each item below.
1. CCN1CCC(Oc2c(C#N)ncc3[nH]c4ncccc4c23)CC1
2. COCC(=O)Oc1cc(-c2ccc(C)cc2C)c(OC(=O)COC)c(-c2ccc(C)cc2C)c1
3. COc1ccc(/C=C/c2nnc(/C=C/c3ccc(OC)c(OC)c3)o2)cc1OC
4. Clc1ccc(CCC(Cn2ccnc2)Sc2c(Cl)cccc2Cl)cc1 (configuration not stated)
5. COc1cc(-c2n[nH]nc2-c2ccc3c(c2)OCCO3)cc(OC)c1OC
6. Cn1ncc2c(Sc3ccc(Cl)cc3)ncnc21
7. COc1cc(C2=NNC(c3ccc(N(C)C)cc3)C2)cc(OC)c1OC (configuration not stated)

Result ::
["1.71 µM", "10.7 µM", "5.59 µM", "3.49 µM", "< 0.01 µM", "44.1 µM", "1.93 µM"]

====

System: SNB-75 CNS
assay-name: NCI tumour cell line growth inhibition, 48 h
outcome-measure: TGI

Please review the following examples before continuing.
compound	TGI
COC1=CC(c2ccc[nH]2)=N/C1=C\c1[nH]c(C)c(C(=O)CCCCC(=O)NCc2ccccc2)c1C	15.1 µM
Cc1ccc(Nc2nc3nc[nH]c3c(=O)[nH]2)cc1CO	29.2 µM
COc1ccc(CCn2c3c(c4c(O)cccc42)C(=O)c2ccccc2-3)cc1OC	> 100 µM

Report TGI for each item below.
1. CC(=O)c1sc2c(c1OC(=O)c1ccc(Cl)cc1)c(=O)n(-c1ccccc1)c(=S)n2-c1ccccc1
2. CCOC(=O)/C=C(\C(=O)OCC)n1ccc(=O)n(Cc2cnnn2COCCOC(C)=O)c1=O
3. COc1ccc(N2C(=O)C3CC(c4ccc(C)cc4)c4c([nH]c5ccccc45)C3C2=O)cc1 (configuration not stated)
4. O=C(Nc1ccccc1-c1nn(CO)c(=S)n(CO)c1=O)C(F)(F)F
5. CS(=O)(=O)N1CC(CI)c2ccc(O)cc21 (configuration not stated)

Result ::
1. 23.3 µM
2. 40.1 µM
3. 51 µM
4. > 100 µM
5. 6.02 µM

Report TGI for each item below.
1. O=c1[nH]cnc2c(COCCCO)c[nH]c12
2. COc1ccc(NCc2cc(OC)c(OC)c(OC)c2)cc1
3. C=CN1CCN(c2ccccc2)P1(=O)Oc1ccccc1 (configuration not stated)
4. NC1(C(=O)O)CCCC1C(=O)O (configuration not stated)
5. CCOC(=O)c1nc2cc(C(F)(F)F)ccc2nc1Nc1cc(OC)c(OC)c(OC)c1

Result ::
> 100 µM
> 100 µM
> 100 µM
> 100 µM
> 100 µM

====

Tested on: XF 498 CNS
assay-name: NCI tumour cell line growth inhibition, 48 h
Exercise: state measured TGI for each of the compounds provided.

Please review the following examples before continuing.
compound	TGI
COC(=O)C(CC(=O)c1ccccc1)c1ccccc1NC(C)=O (stereo unspecified)	> 100 µM
Cc1cc(OCC(O)CO)ccc1-c1ccccc1 (stereo unspecified)	> 100 µM
CC(=O)N1CCc2[nH]c3ccccc3c2CC1	> 100 µM
COc1ccc2c(c1)[n+]([O-])c(-c1c(Cl)cccc1Cl)c(N)[n+]2[O-]	> 100 µM
Cn1c(=O)c2nc(N3CCOCC3)cnc2n(C)c1=O	> 100 µM
CC(=O)OC1COC(N2CCc3ccccc32)C(OC(C)=O)C1OC(C)=O (stereo unspecified)	> 100 µM
CCOc1ccccc1NC(=O)CC1Sc2ccccc2NC1=O (stereo unspecified)	> 100 µM
COc1cc2cc3c4c(cc(OC)c(OC)c4c2cc1OC)CCN3	> 100 µM
CN(C)CC1CCC(=C2CCCC2)C1=O (stereo unspecified)	12.4 µM
[O-]c1ccccc1/C=N/c1nccs1.[O-]c1ccccc1/C=N/c1nccs1.[O]=[U+2]=[O]	> 100 µM

Query :: Form field: TGI recorded for CC[C@@]1(O)C[C@H](OC2CC(N(C)C)C(OC3CC(O)C(OC4CC(O)C(O)C(C)O4)C(C)O3)C(C)O2)c2c(cc3c(c2O)C(=O)c2c(O)ccc(O)c2C3=O)[C@H]1C(=O)OC (stereo partly specified) with XF 498 CNS (enter value)
Result :: 0.225 µM

====

Exercise: state measured GI50 for each of the molecules provided.
System: NCI-H226 lung
assay-name: NCI tumour cell line growth inhibition, 48 h

Please review the following examples before continuing.
molecule	GI50
O=S1CCN(Cc2ccc(-c3ccc4ncnc(Nc5ccc(OCc6cccc(F)c6)c(Cl)c5)c4c3)o2)CC1	4.4 µM
O=S1CCN(Cc2ccc(-c3ccc4ncnc(Nc5ccc(OCc6ccccc6)c(Cl)c5)c4c3)o2)CC1	> 16.5 µM
CCCCNCC(O)c1cc2c(Cl)cc(Cl)cc2c2cc(C(F)(F)F)ccc12 (stereo not given)	1.84 µM

Report GI50 for each item below.
1. FC(F)(F)c1ccc(-c2cnc(Cl)nc2NC2CCCCCC2)cc1
2. COc1cc(/C=N/Nc2ncnc3[nH]ncc23)ccc1O

Result ::
["> 100 µM", "> 25 µM"]
